System: HCMV recombinant mutant virus (RV145)
Experiment: microbe, parasite or virus in culture
Assay type: cell-based, human cytomegalovirus
Details: HCMV
For each entry below, report its IC50 ug/ml HCMV value.
Report the figure in µg/mL without appending any unit label.

Challenge: // IC50 ug/ml HCMV lookup, key: COc1cc(OC)c(NC(=S)Nc2ccc(NC(=O)c3cccc(O)c3)cc2)cc1Cl
Response given: 4

Challenge: Repeat with Nc1cc(Cl)cc(NC(=S)Nc2ccc(NC(=O)c3ccccc3F)cc2)c1
Response given: 2

Challenge: Query COc1cc(OC)c(NC(=S)Nc2ccc(NC(=O)c3ccccc3O)cc2)cc1Cl next
Response given: 6

Challenge: How about CCOC(=O)Nc1cccc(C(=O)Nc2ccc(NC(=S)Nc3cc(Cl)c(OC)cc3OC)cc2)c1 ?
Response given: 1.5

Challenge: Try the compound COc1cc(OC)c(NC(=S)Nc2ccc(NC(=O)c3cccc(OC(C)=O)c3)cc2)cc1Cl
Response given: 8

----------
So I've got a bunch of compounds here, and I need their IC50 ug/ml HCMV values.
Tested on: HCMV recombinant mutant virus (RV145)
Test: microbe, parasite or virus in culture
Format: cell-based, human cytomegalovirus
Details: HCMV

Challenge: Give its IC50 ug/ml HCMV value. Item: COc1cc(OC)c(NC(=S)Nc2ccc(NC(=O)c3ccccc3F)c(C(=O)c3ccccc3)c2)cc1Cl [Example 293]
Response given: >10 µg/mL

Challenge: Follow-up item: O=C(Nc1ccc(NC(=S)NCc2ccc(F)c(Cl)c2)cc1)c1ccccc1F [Example 677]
Response given: >0.5 µg/mL

Challenge: Then Nc1c(Br)cc(NC(=S)Nc2ccc(NC(=O)c3ccccc3F)cc2)cc1Br [Example 519] ?
Response given: 1.7 µg/mL

Challenge: Continue with Nc1c(Cl)cc(NC(=S)Nc2ccc(NC(=O)c3ccccc3F)cc2)cc1Cl [Example 518]
Response given: 4 µg/mL

Challenge: Entry to check: COc1cc(OC)c(NC(=S)Nc2ccc(NC(=O)c3cccc4c3OCO4)cc2)cc1Cl [Example 255]
Response given: >10 µg/mL

Challenge: # repeat for CC(NC(=S)Nc1ccc(NC(=O)c2ccccc2F)cc1)c1ccc2ccccc2c1 (centres unmarked) [Example 799]
Response given: 1.7 µg/mL

Challenge: Consider next the compound CC(N=[N+]=[N-])c1ccc(NC(=S)Nc2ccc(NC(=O)c3ccccc3F)cc2)cc1Cl (centres unmarked) [Example 492] in the same way.
Response given: 2 µg/mL

Challenge: Now consider Cc1ccc(NC(=S)Nc2ccc(NC(=O)c3ccccc3F)cc2)cc1F [Example 997] .
Response given: 4 µg/mL

----------
I'd be grateful if you could share measured IC50 ug/ml HCMV for these entries.
Test system: HCMV recombinant mutant virus (RV145)
Experiment: microbe, parasite or virus in culture
Type: cell-based, human cytomegalovirus
Settings: HCMV
Numbers only here, please. The scale is µg/mL.

Challenge: What measured IC50 ug/ml HCMV goes with CC(C)CN(C)c1cc(NC(=S)Nc2ccc(NC(=O)c3ccccc3F)cc2)cc(C(F)(F)F)c1 [Example 596] ?
Response given: 2

Challenge: Subsequent entry: CN(C)c1cc(Cl)cc(NC(=S)Nc2ccc(NC(=O)c3ccccc3F)cc2)c1 [Example 523]
Response given: 3.2

Challenge: Similarly, Cc1ccc(NC(=S)Nc2ccc(NC(=O)c3ccccc3C)cc2)cc1Cl [Example 234] ?
Response given: 1
